Biological target: T1, HLA-A*0201 on T2 cells (human)
T1 construct: whole, on cells; also called HLA-A2
Test: T2 cell binding assay, flow cytometry
Square brackets hold non-standard residues; d marks the D form. Ends that are not written are not given here. Phe(4-NO2) = N[C@@H](Cc1ccc([N+](=O)[O-])cc1)C(=O)O
metric: EC50 (µM)

binder	unit.abbrev	measured.number
FASEKIFYV [SSX2 41-49 (K41F)]	µM	9.55

1. YASEKIFYV [SSX2 41-49 (K41Y)]
2. [Phe(4-NO2)]ASEKIFYV (also called para-nitrophenylalanine analog) [SSX2 41-49 (K41(Phe-4N02))]
# input // compare: 1 vs 2 , metric EC50, want the smaller Indicate which entry you chose by stating its label.
# output 1
